- experimental.system: Non-receptor tyrosine-protein kinase TYK2 [575-869] (Homo sapiens)
- Sequence (P29597 575-869): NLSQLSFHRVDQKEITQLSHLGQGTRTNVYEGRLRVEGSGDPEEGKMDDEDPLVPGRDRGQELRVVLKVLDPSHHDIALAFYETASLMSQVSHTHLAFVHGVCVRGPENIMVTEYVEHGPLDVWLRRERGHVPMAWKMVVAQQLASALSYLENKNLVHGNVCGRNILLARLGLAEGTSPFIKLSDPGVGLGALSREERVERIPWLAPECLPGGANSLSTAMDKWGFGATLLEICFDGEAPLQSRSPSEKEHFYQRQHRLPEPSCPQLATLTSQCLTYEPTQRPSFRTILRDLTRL
quantity.measured: Kd (nM)
Field format: number, assumed nM, no unit text.

// compound "[2H]C([2H])([2H])NC(=O)c1nnc(NC(=O)C2CC2)cc1Nc1cccc(-c2cc(P(=O)(C3CC3)C3CC3)n(C)n2)c1OC" , assay Non-receptor tyrosine-protein kinase TYK2 [575-869] (Homo sapiens), Kd value: 0.014
